Reported CC50 at 24 h by item:
assay: Cytotoxicity (MTT) assay against HFF-1 cells; format: cell-based; conditions: human, no irradiation, read-out: 50% cytotoxicity concentration (CC50) against HFF-1 cells
Report only the number, with the unit µM understood.

Example results:
[
  {
    "COMPOUND": "C#CCC[n+]1c(/C=C/c2ccc(-c3ccc(N(c4ccc(OCCC[N+](C)(C)C)cc4)c4ccc(OCCC[N+](C)(C)C)cc4)cc3)s2)sc2ccccc21.[Br-].[Br-].[Br-]",
    "MEASUREMENT_UNIT": "µM",
    "NUMERIC_VALUE": 260
  },
  {
    "COMPOUND": "CC[n+]1c(/C=C/c2ccc(-c3ccc(N(c4ccc(OCCC[N+](C)(C)C)cc4)c4ccc(OCCC[N+](C)(C)C)cc4)cc3)s2)sc2ccccc21.[Br-].[Br-].[Br-]",
    "MEASUREMENT_UNIT": "µM",
    "NUMERIC_VALUE": 120
  }
]

Could you now consider this next compound?
Could you tell me which CC50 at 24 h is on file for CC[n+]1c(/C=C/c2ccc(-c3ccc(N(c4ccc(OC)cc4)c4ccc(OC)cc4)cc3)s2)sc2ccccc21.[Br-] [TPA-NC-1, reference compound] ? 7.8
